- ASSAY COMMENT: TLR3 IRF3 reporter activation blockers – cell-based, poly I:C stimulus, luciferase, 10K MLSCN set, primary screen (AID 602277)
- MEASUREMENT SETUP: HEK293-TLR3 RL24 IRF3 luciferase reporter, at 10 µM, stronger effect = higher value
PARAMETER MEASURED: inhibition (%)
Quick note: give the figure in %, leave out the unit.

                                   compound  measured_number
0       c1nc(NCC2(N3CCOCC3)CCCCC2)c2ccsc2n1             23.1
1  Cc1cc(S(=O)(=O)N2CCN(c3ncccn3)CC2)ccc1-n1cnnn1            0.356
2    C=CCNc1nc2c(c(=O)n(C)c(=O)n2C)n1CCCCCC            -34.5

# next compound below
# input What value of inhibition has been recorded for this entry: CC(C)Cc1n[nH]c(=O)[nH]1
# output 1.42

###

- ASSAY COMMENT: inhibitors of TNFa-induced NFkB p65 translocation, primary screen, imaging, HUVEC, MLSMR starter and 10KST1 sets (AID 438);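 also: compound added about 3h40 before a 20 min TNFalpha stimulation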
- MEASUREMENT SETUP: HUVEC TNFa-induced p65 nuclear translocation; measured here: nuclei count (cytotoxicity indicator), at 2.08 µM
PARAMETER MEASURED: cell count
The response must contain the number and no unit.

In the examples that follow, each entry is paired with its recorded cell count.
                                   molecule  parameter_measured  measured_number
0  O=C1c2ccccc2C(O)(Cc2ccccc2)N1Cc1ccco1 (centres undefined)          cell count              425
1    CCC(=O)Oc1ccc(C/C(=N\O)c2ccc(O)cc2O)o1          cell count              405
2  COc1ccc(-c2noc(-c3ccccc3C(=O)Nc3cccnc3)n2)cc1          cell count              218

Consider the additional molecule presented here.
# input Fill blank: measured cell count of the molecule CC(=O)c1cc2c(cc1NC(=O)CN1CCN(C(=O)c3ccco3)CC1)OCO2 is ____.
# output 410

###

# Lookup of reported nuclei count keyed by entry
- ASSAY COMMENT: reduction of polyQ htt aggregates in cells – imaging, exon1htt(103Q)mCFP cells, high-content imaging, primary screen (AID 483);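 also: compound exposure lasted 3 days before fixation; percent of the per-plate median nuclei count of sample wells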
- MEASUREMENT SETUP: exon1htt(103Q)mCFP cell line, aggregate imaging, at 2 µM; measured here: cell count, toxicity
// units = %; emit number, no label

Here's what some known entries look like.
>>> df
                                   molecule  measured_number
0            N#CCC(=O)Nc1ncn(Cc2ccccc2Cl)n1             87.3
1   O=C(c1ccco1)c1nnn(Cc2ccccc2)c1-c1ccccc1              122
2  COc1ccccc1-n1c(SCC(=O)Nc2ccc3c(c2)OCO3)nc2c(c1=O)SCC2             94.7

# input If you can, please state the reported nuclei count value of Cc1cccc(C)c1NC(=O)COC(=O)c1nonc1N .
# output 99.3

# input Please look up its nuclei count: O=C(Nc1ccccc1)c1cccc(N2CCCC2=O)c1
# output 101

# input So what's the measured nuclei count for this one? COc1ccccc1N1CCN(C(=O)c2cc(-c3ccc(Cl)c(Cl)c3)on2)CC1
# output 97.3

# input Query: nuclei count; subject: CC(c1ccco1)N(C(=O)c1ccc(S(=O)(=O)N2CCCCC2)cc1)c1ccccn1 (stereo unspecified)
# output 109

# input Which nuclei count is listed for CC(=O)Nc1sc2c(c1C#N)CCCCC2 ?
# output 78.3

# input So what does the record say about nuclei count for Cc1ccc(Nc2nc(N)nc(CN3CCN(Cc4ccc5c(c4)OCO5)CC3)n2)cc1 ?
# output 91.6

# input I have this molecule here, C(/CCc1ccccc1)=N\n1cnnc1 , and I need its recorded nuclei count.
# output 109

# input May I ask what nuclei count has been recorded for Cn1c(-c2ccc(F)cc2)cnc1NCc1ccccc1 ?
# output 74.6

###

- ASSAY COMMENT: blockers of RIG-like receptor reporter activation – cell-based, Sendai virus stimulus, luciferase, 10K MLSCN set, TLR/RLR signaling modifier project, primary screen (AID 602276);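 also: firefly luciferase from ISG56 promoter only with Renilla not read in this screen; 0% = Sendai virus plus DMSO and 100% = medium plus DMSO without virus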
- MEASUREMENT SETUP: HEK293 RL24 IRF3 luciferase reporter, at 10 µM, stronger effect = higher value
The source made the active and inactive calls.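 Rule for the calls: active = inhibition at or above 50% at 10 µM; inactive = inhibition below 50%.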
Recorded inhibition for the following molecules

Example molecules with recorded inhibition:
>>> df
                                   molecule  parameter_measured             result
0  CN1C(=S)SC(C)(NO)C1(C)C (configuration not stated)          inhibition   15.4% (inactive)
1      O=C(NC1CCCCCC1)c1c(F)c(F)c(F)c(F)c1F          inhibition   1.12% (inactive)
2  O=C1NC(c2ccccc2)(C(F)(F)F)SC2=CCCCCN12 (configuration not stated)          inhibition  -3.83% (inactive)
3  CC(C)(C)c1cc(NS(=O)(=O)c2ccc3c(c2)OCCO3)on1          inhibition   11.1% (inactive)
4  COc1ccc(CCN2C(=O)CC(N3CCN(S(=O)(=O)c4ccccc4)CC3)C2=O)cc1 (configuration not stated)          inhibition   11.6% (inactive)
5              O=C(O)c1ccc(CSc2ncn[nH]2)cc1          inhibition   6.95% (inactive)
6                Oc1ccc2[nH]cnc2c1CN1CCCCC1          inhibition   15.4% (inactive)
7    Cc1cc(C(F)F)n2ncc(C(=O)NC3CCCCCC3)c2n1          inhibition   15.9% (inactive)
8                   CSc1nc2c(ccc3ccccc32)o1          inhibition  -5.19% (inactive)
9  O=C1c2ccccc2C(=O)N1Cc1nc2ccccc2c(=O)n1CCN1CCOCC1          inhibition   14.9% (inactive)

# input Given the molecule CON(C)c1nc(Oc2ccc(=O)[nH]n2)nc(N(C)C)n1 , what is its reported inhibition?
# output 16.3% (inactive)

# input Which value of inhibition has been reported for CCN(CC(=O)Nc1ccc2c(c1)CCC2)Cc1nc2ccccc2c(=O)[nH]1 in the records?
# output 13.7% (inactive)

###

Listed below: slope values for each entry.
- TARGET OF ASSAY: Alpha-2C adrenergic receptor (Homo sapiens) (UniProt P18825)
- Sequence (P18825 whole entry, looked up): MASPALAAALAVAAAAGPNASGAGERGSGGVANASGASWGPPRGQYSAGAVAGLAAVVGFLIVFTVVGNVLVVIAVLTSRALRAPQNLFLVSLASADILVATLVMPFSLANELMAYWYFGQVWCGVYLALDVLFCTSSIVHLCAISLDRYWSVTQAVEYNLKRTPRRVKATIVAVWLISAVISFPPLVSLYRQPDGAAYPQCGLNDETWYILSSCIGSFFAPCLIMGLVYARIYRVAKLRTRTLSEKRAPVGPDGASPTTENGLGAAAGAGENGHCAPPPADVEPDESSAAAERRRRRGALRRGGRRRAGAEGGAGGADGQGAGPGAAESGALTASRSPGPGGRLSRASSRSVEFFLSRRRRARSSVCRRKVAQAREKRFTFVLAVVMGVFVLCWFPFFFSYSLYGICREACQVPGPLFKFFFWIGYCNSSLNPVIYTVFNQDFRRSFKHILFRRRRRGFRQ
- ASSAY COMMENT: compounds altering alpha2C-coupled GIRK flux – cell-based, HEK293 alpha2C/GIRK1/2, thallium flux, primary screen (AID 624);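 also: slope of fluorescence ratio to pre-addition baseline per second over 15 to 24 s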
- MEASUREMENT SETUP: thallium flux BTC fluorescence, at 10 µM, actives lie on both sides
# print the numeric value only

>>> df
                                   molecule                           target_of_assay  measured_number
0      CCCNC(=O)Nc1ccccc1C(=O)Nc1ccc(OC)cc1  Alpha-2C adrenergic receptor (Homo sapiens) (UniProt P18825)          0.00585
1  CCOC(=O)N1CCN(C(=O)CN(C2CCCCC2)S(=O)(=O)c2ccc(F)cc2)CC1  Alpha-2C adrenergic receptor (Homo sapiens) (UniProt P18825)          0.00492

# input # get_value(readout='slope', item= CC(C)OC(=O)CSc1nnc(-c2cccnc2)n1Cc1ccccc1 )
# output 0.00509

# input Given the entry COc1cc(CO)cc(-c2cc(CO)cc(OC)c2OC)c1OC , report its measured slope.
# output 0.00523

# input # slope lookup, item COc1cc2c(cc1OC)C(/C(C#N)=N\O)=NC(C)(C)C2
# output 0.0058

###

Recorded NADPH fluorescence slope, one value per entry.
- TARGET OF ASSAY: Voltage-gated potassium channel subunit beta-2 (Rattus norvegicus) (UniProt P62483)
- Sequence (P62483 whole entry, looked up): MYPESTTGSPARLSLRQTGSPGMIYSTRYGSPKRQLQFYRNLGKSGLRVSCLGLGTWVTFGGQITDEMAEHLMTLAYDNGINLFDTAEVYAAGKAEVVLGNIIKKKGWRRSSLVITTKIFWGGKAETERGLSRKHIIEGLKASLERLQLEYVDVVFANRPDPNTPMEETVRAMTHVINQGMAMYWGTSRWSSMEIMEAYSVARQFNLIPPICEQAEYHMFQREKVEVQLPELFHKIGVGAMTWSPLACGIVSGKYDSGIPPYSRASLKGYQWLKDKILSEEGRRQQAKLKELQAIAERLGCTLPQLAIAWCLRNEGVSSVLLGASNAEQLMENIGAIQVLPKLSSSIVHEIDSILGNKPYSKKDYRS
- ASSAY COMMENT: enhancers of rat Kvbeta2 NADPH turnover – biochemical, NADPH fluorescence, primary screen (AID 623);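 also: fluorescence intensity change per second fitted from 20 to 320 s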
- MEASUREMENT SETUP: Recombinant KvBeta, NADPH fluorescence decrease slope, 10 min; at 10 µM; stronger effect = lower value
Please give only the number in your answer, with no unit.

In [3]: df
Out[3]:
                                   compound  measured_number
0  O=C(Nc1cccc(NC(=O)c2ccco2)c1)c1ccc2c(c1)OCO2          2.7e-06
1  CCCCn1c(SCc2ccc(Cl)cc2)nc2c1c(=O)[nH]c(=O)n2C         -4.9e-05
2  CCOC(=O)c1nnn(-c2nonc2N)c1CN1CCc2ccccc2C1          4.7e-05
3  CC1CCc2nn(CC(=O)NCc3ccc(F)cc3)cc2C1 (stereo unspecified)         -3.4e-06
4                     CCCc1ccccc1OCCNC(C)=O         -3.9e-06

# input Enter reported NADPH fluorescence slope observed with Voltage-gated potassium channel subunit beta-2 (Rattus norvegicus) (UniProt P62483) for CCn1c(=N)n(CC(=O)c2ccco2)c2ccccc21
# output -5.5e-05

# input API: value(readout=NADPH fluorescence slope, system=Voltage-gated potassium channel subunit beta-2 (Rattus norvegicus) (UniProt P62483)) for record Cc1nnc(SCCn2c(N3CCC(Cc4ccccc4)CC3)nc3c2c(=O)[nH]c(=O)n3C)s1
# output 3.5e-06

# input Request body: readout NADPH fluorescence slope, system Voltage-gated potassium channel subunit beta-2 (Rattus norvegicus) (UniProt P62483), query O=C(Nc1nnc(SCC(=O)N2CCCCC2)s1)C1CCCCC1 . Return the value.
# output -3.5e-05

# input Request: NADPH fluorescence slope, test system Voltage-gated potassium channel subunit beta-2 (Rattus norvegicus) (UniProt P62483), entry COc1ccc(NC(=O)Cn2nnc(-c3ccccc3F)n2)cc1Cl
# output 1.8e-05

# input Query the reported NADPH fluorescence slope for Voltage-gated potassium channel subunit beta-2 (Rattus norvegicus) (UniProt P62483); item: CCOc1ccccc1NC(=O)C1CCCN1C(=O)OCc1ccccc1 (stereo unspecified)
# output -4.2e-05

# input Return NADPH fluorescence slope measured with Voltage-gated potassium channel subunit beta-2 (Rattus norvegicus) (UniProt P62483) given this compound: N#Cc1c(-c2ccc3c(c2)OCO3)csc1N
# output -4.4e-05

# input Record N#Cc1nc(-c2ccc(Cl)cc2)oc1NCCc1ccccn1 : what is its NADPH fluorescence slope with Voltage-gated potassium channel subunit beta-2 (Rattus norvegicus) (UniProt P62483)?
# output -2.8e-06

# input Query the reported NADPH fluorescence slope for Voltage-gated potassium channel subunit beta-2 (Rattus norvegicus) (UniProt P62483); item: O=C(Nc1ccc(S(=O)(=O)N2CCc3ccccc32)cc1)c1ccc2c(c1)OCO2
# output -1.6e-05

# input Return NADPH fluorescence slope measured with Voltage-gated potassium channel subunit beta-2 (Rattus norvegicus) (UniProt P62483) given this compound: O=C(c1cn(-c2ccccc2)nc1-c1cccs1)N1CCN(c2ccccn2)CC1
# output 4e-05

# input # query: NADPH fluorescence slope | item COC(=O)C(C)Sc1nc2c(c(=O)n(C)c(=O)n2C)n1Cc1cccc(C)c1 (stereo unspecified) | system: Voltage-gated potassium channel subunit beta-2 (Rattus norvegicus) (UniProt P62483)
# output -3.9e-05

# input Give the reported NADPH fluorescence slope for C/C(=C(\C#N)C(=O)NCCCN1CCOCC1)N(C)C (system: Voltage-gated potassium channel subunit beta-2 (Rattus norvegicus) (UniProt P62483)).
# output -1.9e-05

# input State its NADPH fluorescence slope on Voltage-gated potassium channel subunit beta-2 (Rattus norvegicus) (UniProt P62483): COc1ccccc1-c1cc(C(=O)Nc2cc(C)nn2-c2ccccc2)no1
# output -2e-05

# input Give NADPH fluorescence slope (Voltage-gated potassium channel subunit beta-2 (Rattus norvegicus) (UniProt P62483)) of the following compound: Cc1ccc(S(=O)(=O)N2CCCN(S(=O)(=O)C3CCS(=O)(=O)C3)CC2)cc1 (stereo unspecified)
# output -4.2e-05

# input Request: NADPH fluorescence slope, test system Voltage-gated potassium channel subunit beta-2 (Rattus norvegicus) (UniProt P62483), entry COc1cc(C(=O)N2CCN(C(=O)CC(C)C)CC2)cc(OC)c1OC
# output 7.6e-05
